Data provenance: ChEMBL document CHEMBL1833895

Tested on: Trichosporon asahii
PROTOCOL_TEXT: Antifungal activity against Trichosporon asahii 1188 after 48 hrs by microdilution method
Type: functional
CONDITION_CONTEXT: Trichosporon asahii, 1188, 48 h
RECORDED_METRIC: log10 IC80 (log10 of the value in µM)
Log10 applied to IC80; unit prior to transform: µM.

Would you please look over these solved cases?
[
  {
    "COMPOUND": "O=C1C=CC(=O)C1=C/C=C/c1ccccc1",
    "TESTED_SYSTEM": "Trichosporon asahii",
    "REPORTED": 1.19
  },
  {
    "COMPOUND": "O=C1C=CC(=O)C1=Cc1cccs1",
    "TESTED_SYSTEM": "Trichosporon asahii",
    "REPORTED": 1.49
  },
  {
    "COMPOUND": "O=C1C=CC(=O)C1=Cc1ccc(F)cc1",
    "TESTED_SYSTEM": "Trichosporon asahii",
    "REPORTED": 1.80
  },
  {
    "COMPOUND": "COc1ccc(C=C2C(=O)C=CC2=O)cc1",
    "TESTED_SYSTEM": "Trichosporon asahii",
    "REPORTED": 1.49
  },
  {
    "COMPOUND": "O=C1C=CC(=O)C1=Cc1ccc(Br)cc1",
    "TESTED_SYSTEM": "Trichosporon asahii",
    "REPORTED": 1.19
  }
]

Would you be so kind as to report log10 IC80 for each listed record?
1. CN(C)c1ccc(C=C2C(=O)C=CC2=O)cc1
2. COc1ccc(/C=C/C=C2C(=O)C=CC2=O)cc1
3. OC(Cn1cncn1)(Cn1cncn1)c1ccc(F)cc1F [FLUCONAZOLE]
4. O=C1C=CC(=O)C1=Cc1ccccc1
5. O=C1C=CC(=O)C1=Cc1ccco1
6. Cc1ccc(C=C2C(=O)C=CC2=O)cc1
7. O=C1C=CC(=O)C1=C/C=C/c1ccc(Cl)cc1

Reply |
1: 1.19; 2: 2.70; 3: 0.95; 4: 0.59; 5: 1.49; 6: 1.80; 7: 2.10

Would you be so kind as to report log10 IC80 for each listed record?
1. O=C1C=CC(=O)C1=Cc1ccc(Cl)cc1
2. COC(/C=C/c1ccccc1)=C1\C(=O)C=C(C)C1=O [CORUSCANONE A]
3. O=C1C=CC(=O)C1=Cc1ccc2ccccc2c1
4. O=C1C=CC(=O)C1=Cc1cccc(Br)c1

Reply |
1.80
0.89
1.80
2.10

---

System: L1210
PROTOCOL_TEXT: Cytostatic activity against mouse L1210 cells after 72 hrs by XTT assay
Assay type: ADME, cell-based
CONDITION_CONTEXT: L1210, 72 h
RECORDED_METRIC: IC50 (µM)
One number for each entry, in µM.

Ask | Give the reported value of IC50 for this record: `COC(/C=C/c1ccccc1)=C1\C(=O)C=C(C)C1=O`
Reply | 3.8

---

Kindly state IC80 for each of the entries shown.
System: Clavispora lusitaniae
PROTOCOL_TEXT: Antifungal activity against Candida lusitaniae 2446/I after 24 hrs by microdilution method
Format: functional
Answers are plain numbers, in µM.

[
  {
    "COMPOUND_STRUCTURE": "OC(Cn1cncn1)(Cn1cncn1)c1ccc(F)cc1F",
    "TESTED_SYSTEM": "Clavispora lusitaniae",
    "IC80 / µM": 3.3
  },
  {
    "COMPOUND_STRUCTURE": "O=C1C=CC(=O)C1=Cc1ccccc1",
    "TESTED_SYSTEM": "Clavispora lusitaniae",
    "IC80 / µM": 7.81
  },
  {
    "COMPOUND_STRUCTURE": "O=C1C=CC(=O)C1=Cc1ccc(F)cc1",
    "TESTED_SYSTEM": "Clavispora lusitaniae",
    "IC80 / µM": 15.6
  }
]

Would you be so kind as to report IC80 for each listed record?
1. O=C1C=CC(=O)C1=Cc1cccs1
2. O=C1C=CC(=O)C1=Cc1ccc(Br)cc1
3. O=C1C=CC(=O)C1=C/C=C/c1ccccc1
4. COc1ccc(C=C2C(=O)C=CC2=O)cc1
5. O=C1C=CC(=O)C1=C/C=C/c1ccc(Cl)cc1
6. O=C1C=CC(=O)C1=Cc1ccco1
7. O=C1C=CC(=O)C1=Cc1ccc(Cl)cc1

Reply |
[15.6, 15.6, 7.81, 7.81, 62.5, 15.6, 31.2]

Would you be so kind as to report IC80 for each listed record?
1. Cc1ccc(/C=C/C=C2C(=O)C=CC2=O)cc1
2. Cc1ccc(C=C2C(=O)C=CC2=O)cc1
3. O=C1C=CC(=O)C1=Cc1ccc2ccccc2c1

Reply |
[7.81, 15.6, 15.6]

---

Kindly state IC80 for each of the entries shown.
Test system: Pichia kudriavzevii
PROTOCOL_TEXT: Antifungal activity against Candida krusei ATCC 6258 after 24 hrs by microdilution method
Assay type: functional
CONDITION_CONTEXT: ATCC 6258, 24 h
Answer format: value, then unit.

Would you please look over these solved cases?
[
  {
    "COMPOUND_STRUCTURE": "Cc1ccc(/C=C/C=C2C(=O)C=CC2=O)cc1",
    "IC80": "7.81 µM"
  },
  {
    "COMPOUND_STRUCTURE": "O=C1C=CC(=O)C1=C/C=C/c1ccccc1",
    "IC80": "3.9 µM"
  },
  {
    "COMPOUND_STRUCTURE": "O=C1C=CC(=O)C1=C/C=C/c1ccc(Cl)cc1",
    "IC80": "62.5 µM"
  },
  {
    "COMPOUND_STRUCTURE": "O=C1C=CC(=O)C1=Cc1cccc(Br)c1",
    "IC80": "15.6 µM"
  },
  {
    "COMPOUND_STRUCTURE": "O=C1C=CC(=O)C1=Cc1cccs1",
    "IC80": "7.81 µM"
  },
  {
    "COMPOUND_STRUCTURE": "O=C1C=CC(=O)C1=Cc1ccc2ccccc2c1",
    "IC80": "15.6 µM"
  }
]

Attention now shifts to the item below.
Ask | Give the reported value of IC80 for this record: `O=C1C=CC(=O)C1=Cc1ccco1`
Reply | 7.81 µM

---

Test system: Pichia kudriavzevii
PROTOCOL_TEXT: Antifungal activity against Candida krusei E28 after 24 hrs by microdilution method
Type: functional
CONDITION_CONTEXT: E28, 24 h
RECORDED_METRIC: IC80 (µM)
Give bare numbers, in µM.

Would you be so kind as to report IC80 for each listed record?
1. O=C1C=CC(=O)C1=Cc1ccco1
2. CN(C)c1ccc(C=C2C(=O)C=CC2=O)cc1
3. O=C1C=CC(=O)C1=Cc1ccc(F)cc1

Reply |
[15.6, 7.81, 15.6]

Would you be so kind as to report IC80 for each listed record?
1. O=C1C=CC(=O)C1=Cc1ccc2ccccc2c1
2. Cc1ccc(/C=C/C=C2C(=O)C=CC2=O)cc1
3. O=C1C=CC(=O)C1=Cc1ccc(Br)cc1

Reply |
[31.2, 7.81, 15.6]

Would you be so kind as to report IC80 for each listed record?
1. O=C1C=CC(=O)C1=Cc1ccc(Cl)cc1
2. O=C1C=CC(=O)C1=C/C=C/c1ccccc1
3. O=C1C=CC(=O)C1=Cc1ccccc1
4. COC(/C=C/c1ccccc1)=C1\C(=O)C=C(C)C1=O [CORUSCANONE A]
5. O=C1C=CC(=O)C1=Cc1cccs1
6. Cc1ccc(C=C2C(=O)C=CC2=O)cc1

Reply |
1. 31.2
2. 15.6
3. 3.9
4. 125
5. 7.81
6. 15.6

---

System: Candida tropicalis
PROTOCOL_TEXT: Antifungal activity against Candida tropicalis 156 after 48 hrs by microdilution method
Assay type: functional
CONDITION_CONTEXT: Candida tropicalis, 156, 48 h
Kindly state log10 of IC80 for each of the entries shown.
Log10 applied to IC80; unit prior to transform: µM.

[
  {
    "COMPOUND_STRUCTURE": "O=C1C=CC(=O)C1=Cc1ccc(F)cc1",
    "TESTED_SYSTEM": "Candida tropicalis",
    "log10 of IC80": 1.49
  },
  {
    "COMPOUND_STRUCTURE": "Cc1ccc(C=C2C(=O)C=CC2=O)cc1",
    "TESTED_SYSTEM": "Candida tropicalis",
    "log10 of IC80": 1.19
  },
  {
    "COMPOUND_STRUCTURE": "O=C1C=CC(=O)C1=Cc1ccco1",
    "TESTED_SYSTEM": "Candida tropicalis",
    "log10 of IC80": 1.19
  }
]

Would you be so kind as to report log10 of IC80 for each listed record?
1. COc1ccc(/C=C/C=C2C(=O)C=CC2=O)cc1
2. O=C1C=CC(=O)C1=Cc1cccs1
3. COc1ccc(C=C2C(=O)C=CC2=O)cc1
4. O=C1C=CC(=O)C1=Cc1ccc2ccccc2c1
5. Cc1ccc(/C=C/C=C2C(=O)C=CC2=O)cc1
6. O=C1C=CC(=O)C1=C/C=C/c1ccccc1
7. OC(Cn1cncn1)(Cn1cncn1)c1ccc(F)cc1F

Reply |
1: 2.40; 2: 1.19; 3: 0.89; 4: 1.49; 5: 0.89; 6: 1.19; 7: 0.70
